Entries below carry reported pKi on Carbonic anhydrase 2 (Homo sapiens, UniProt P00918).
On this scale, pKi is minus log10 of a concentration expressed in M (mol/L).

[
  {
    "molecule": "CCOC(=O)/C=C/c1ccc(O)cc1 [ETHYL P-COUMARATE]",
    "recorded-endpoint": "pKi",
    "observed-result": 6.15
  },
  {
    "molecule": "COC(=O)c1c(O)cccc1O",
    "recorded-endpoint": "pKi",
    "observed-result": 6.15
  },
  {
    "molecule": "CC(C)OC(=O)c1c(O)cccc1O",
    "recorded-endpoint": "pKi",
    "observed-result": 6.28
  },
  {
    "molecule": "Cc1cc(C)[n+](CCc2ccccc2-c2ccccc2)c(C)c1",
    "recorded-endpoint": "pKi",
    "observed-result": 5.33
  },
  {
    "molecule": "Cc1cc(C)[n+](-c2cc(O)ccc2Cl)c(C)c1",
    "recorded-endpoint": "pKi",
    "observed-result": 6.31
  }
]

Fill in pKi for Cc1cc(C)[n+](CCc2ccccc2C)c(C)c1 tested with Carbonic anhydrase 2 (Homo sapiens, UniProt P00918).
5.17

Fill in pKi for Cc1cc(C)[n+](-c2cccc(O)c2)c(C)c1 tested with Carbonic anhydrase 2 (Homo sapiens, UniProt P00918).
6.49

Fill in pKi for Nc1cccc(O)c1 tested with Carbonic anhydrase 2 (Homo sapiens, UniProt P00918).
5.33
